Molecular target: Poly [ADP-ribose] polymerase 1 (Homo sapiens, UniProt P09874)
Sequence (P09874 whole entry): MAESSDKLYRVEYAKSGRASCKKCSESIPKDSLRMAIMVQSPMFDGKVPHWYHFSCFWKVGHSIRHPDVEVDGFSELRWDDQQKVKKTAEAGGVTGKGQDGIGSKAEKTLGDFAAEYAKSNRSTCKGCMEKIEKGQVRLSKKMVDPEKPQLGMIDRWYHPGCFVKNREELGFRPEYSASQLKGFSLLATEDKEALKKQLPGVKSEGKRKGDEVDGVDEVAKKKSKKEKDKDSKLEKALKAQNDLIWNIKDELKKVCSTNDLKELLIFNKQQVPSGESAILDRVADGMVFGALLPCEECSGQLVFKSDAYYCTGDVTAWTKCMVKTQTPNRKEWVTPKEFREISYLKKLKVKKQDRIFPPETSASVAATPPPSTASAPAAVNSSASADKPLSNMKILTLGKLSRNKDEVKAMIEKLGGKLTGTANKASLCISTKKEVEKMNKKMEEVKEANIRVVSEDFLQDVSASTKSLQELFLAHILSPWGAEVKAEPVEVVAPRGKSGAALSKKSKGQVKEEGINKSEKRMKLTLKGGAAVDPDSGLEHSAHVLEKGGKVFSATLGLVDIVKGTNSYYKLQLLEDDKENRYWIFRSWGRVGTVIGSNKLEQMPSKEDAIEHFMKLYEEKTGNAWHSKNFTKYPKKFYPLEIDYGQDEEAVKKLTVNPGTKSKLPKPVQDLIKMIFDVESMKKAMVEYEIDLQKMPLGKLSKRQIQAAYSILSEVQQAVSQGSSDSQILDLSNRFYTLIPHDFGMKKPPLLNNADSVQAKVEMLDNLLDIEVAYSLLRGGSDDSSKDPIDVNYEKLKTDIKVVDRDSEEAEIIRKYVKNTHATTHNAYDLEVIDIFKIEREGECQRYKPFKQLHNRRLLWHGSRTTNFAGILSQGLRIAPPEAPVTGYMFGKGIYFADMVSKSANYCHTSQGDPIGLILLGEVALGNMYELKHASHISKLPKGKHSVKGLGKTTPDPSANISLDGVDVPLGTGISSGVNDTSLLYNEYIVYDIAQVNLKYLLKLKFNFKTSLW
Test: Inhibition of PARP-1 in human HeLa cells incubated for 18 hrs in presence of H2O2
Rule: EC50 below 50 nM gives class 1. Equal to or above 50 nM gives class 0.

compound=O=C1NN=C2CN(S(=O)(=O)C3CC3)Cc3[nH]c4cc(F)cc1c4c32 target="Poly [ADP-ribose] polymerase 1 (Homo sapiens, UniProt P09874)" assigned_label="class 1"
compound=CNCCn1c2c3c4c(cccc41)C(=O)NN=C3CC(C)(C)C2 target="Poly [ADP-ribose] polymerase 1 (Homo sapiens, UniProt P09874)" assigned_label="class 1"
compound="CC12CCCN1Cc1[nH]c3cc(F)cc4c3c1C2=NNC4=O (stereo unspecified)" target="Poly [ADP-ribose] polymerase 1 (Homo sapiens, UniProt P09874)" assigned_label="class 0"
compound=CC1(C)C(=O)C2=NNC(=O)c3cc(F)cc4[nH]c(c2c34)C1=O target="Poly [ADP-ribose] polymerase 1 (Homo sapiens, UniProt P09874)" assigned_label="class 0"
compound=O=C1NN=C2CN(C(=O)C3(c4ccccc4)CC3)Cc3[nH]c4cc(F)cc1c4c32 target="Poly [ADP-ribose] polymerase 1 (Homo sapiens, UniProt P09874)" assigned_label="class 1"
compound=O=C1NN=C2CN(C(=O)[C@@H]3CCCN3)Cc3[nH]c4cc(F)cc1c4c32 target="Poly [ADP-ribose] polymerase 1 (Homo sapiens, UniProt P09874)" assigned_label="class 1"
